system: SF-268; assay: NCI tumour cell line growth inhibition, 48 h
Calls of active or inactive are those of the source. No stated cut-off is given here; in the data, active = GI50 up to about 1.1 µM and inactive = higher.
GI50 values, listed per item

MOLECULE	ASSAY_SYSTEM	GI50
COc1cc(/C=c2/c3ccccc3n3c2cc(-c2ccccc2)[n+]3C)cc(OC)c1OC	SF-268	6.73 µM (inactive)
COc1cc(C=O)c(-c2cc3c(cc2C2(C)OCCS2)OCO3)c(OC)c1OC (stereo not given)	SF-268	36.5 µM (inactive)
COC(=O)/C=C1\CCC(C)(C(=O)NS(=O)(=O)c2ccc(C)cc2)C1(C)C (stereo not given)	SF-268	> 100 µM (inactive)
CC(=O)N(CCc1ccccc1)C(C#N)c1ccc(OCCCCCCCCCCOc2ccc(C(C#N)N(CCc3ccccc3)C(C)=O)cc2)cc1 (stereo not given)	SF-268	21.7 µM (inactive)
O=[N+]([O-])c1cnccc1-n1nnc2ccccc21	SF-268	18.8 µM (inactive)
Clc1ccc(C2=NCON=C2c2ccc(Cl)cc2)cc1	SF-268	19.7 µM (inactive)
CCOC(=O)C1(C(=O)OCC)OC(=O)NC2=C1CCCC2	SF-268	> 100 µM (inactive)
CC(=O)Nc1nc(C)c(S(=O)(=O)NC(=O)NC2NC(=O)NC2=O)s1 (stereo not given)	SF-268	> 100 µM (inactive)
COc1ccc2c(c1)CC[C@@H]1C2CC[C@]2(C)C(=O)N(CCN3CCCCC3)C(=O)CC12 (stereo not given in full)	SF-268	> 100 µM (inactive)
CC(=N/NC(N)=S)/C(C)=N/NC(N)=S	SF-268	> 100 µM (inactive)

The reported measurements were obtained from ChEMBL document CHEMBL1201862.
